system: HL-60(TB) leukemia; assay: NCI-60 one-dose screen, 48 h (100 = growth as untreated, 0 = no growth, -100 = all killed); conditions: 10 µM unless noted
The panel holds about 83,000 compounds, 20% with a hit somewhere; the sample as a whole holds those more often.
Outcome: Y for growth of at least 30%; N for anything lower.

For orientation, consider the following solved cases.
{"molecule": "CC(=O)Nc1ccc(S(=O)(=O)N2C(=O)CCC2C(=O)Nc2ccccc2)cc1 (stereo not given)", "subject of test": "HL-60(TB) leukemia", "assigned class": "N"}
{"molecule": "Br/C(=N\\Nc1nn[nH]n1)c1ccccc1", "subject of test": "HL-60(TB) leukemia", "assigned class": "Y"}
{"molecule": "CCN(CCO)CCC(=O)c1ccc([N+](=O)[O-])cc1", "subject of test": "HL-60(TB) leukemia", "assigned class": "Y"}
{"molecule": "Oc1ccc(Cl)cc1/C=N\\NC(=S)N/N=C/c1cc(Cl)ccc1O", "subject of test": "HL-60(TB) leukemia", "assigned class": "N"}
{"molecule": "C/C(=N/NC(=O)Cn1c2ccccc2c2ccncc21)c1cccs1", "subject of test": "HL-60(TB) leukemia", "assigned class": "Y"}

hey, is growth for this one >= 30%? "O=C(Nc1ccc(-n2ccc3c(NC(=O)c4ccccc4)nccc32)cc1)Nc1cccc(C(F)(F)F)c1"
Y

Identify whether the reported growth of the following molecule is 30% or greater: "COc1ccc(C2=C(c3cn(C)c4ccccc34)C(=O)OC2)cc1OC"
N

# bool: growth of "CCCNC(=S)N/N=C(\C)c1ccccn1" >= 30%
N

I'd appreciate it if you could say whether "O=c1oc2ccccc2cc1C1=NN=C(SCc2ccccc2)SC1" has growth at least equal to 30%.
Y

Decide: growth of "CCOc1ccc2nc(-c3cccc(OCC(=O)NC(C)C)c3)nc(Nc3ccc(-c4cn[nH]c4)cc3)c2c1" >= 30%?
N

---

system: HL-60(TB) leukemia; experiment: NCI-60 one-dose screen, 48 h (100 = growth as untreated, 0 = no growth, -100 = all killed); details: 10 µM unless noted
About 83,000 compounds went through this panel and 20% of them were active in at least one assay; those are over-represented in the sample as a whole.
// growth lookup, one value per entry
I only need the number, in %, no unit after it.

Solved entries (count: 3):
{"structure as smiles": "CCCCCC(/C=N\\NC(=S)N/N=C/C(=C/c1ccccc1)CCCCC)=C\\c1ccccc1", "value reported": 68.8}
{"structure as smiles": "CC(=O)c1cccc(NS(=O)(=O)c2ccc(C)cc2)c1", "value reported": 70.9}
{"structure as smiles": "c1ccc(-c2nc(N3CCOCC3)c3c4c(sc3n2)CCCCCC4)nc1", "value reported": 68.4}

Specify growth for "COc1cccc(OC(=O)c2ccccc2)c1OC(=O)c1ccccc1" , system HL-60(TB) leukemia.
69.6

---

system: HL-60(TB) leukemia; assay: NCI-60 one-dose screen, 48 h; details: 10 µM unless noted
About 83,000 compounds went through this panel and 20% of them were active in at least one assay; those are over-represented in the sample as a whole. Activity calls are given as the source filed them. How the source made its calls: active means growth percent below 10; inactive means the rest.
Hello, when you answer, please use one of the following outcomes: active, inactive

{"compound": "C/C(Cc1ccc(Cl)cc1)=C(/c1ccc(Cl)cc1)c1ccc(OCCN(C)C)cc1", "assigned class": "active"}
{"compound": "O=C(CNc1c(Cl)cccc1Cl)Nc1ccc(-c2nc3ccccc3s2)cc1", "assigned class": "inactive"}
{"compound": "O=C(Nc1cccc(F)c1)c1cc(=O)[nH]c2cc(Br)ccc12", "assigned class": "active"}
{"compound": "O=[N+]([O-])c1ccc(NC2CCCCC2)nc1", "assigned class": "inactive"}
{"compound": "O=c1[nH]c2ccccc2cc1-c1nc2ccc(Cl)cc2[nH]1", "assigned class": "active"}

Answer briefly: the call reported for "Nc1ncnc2c1c(-c1ccc(Oc3ccccc3)cc1)nn2C[C@H]1SSC[C@@H]1O" in this assay.
active

Entry "CN(C)CCNc1nc2ccccc2c2c(=O)c3cc(F)ccc3sc12" : call = ?
inactive

Hey, what did the test say about "O=C(/C=C/c1cccc(O)c1)c1cccc(-n2cc(-c3ccccc3)[nH]c2=O)c1" ?
inactive

Write down the call the test reported for this compound. Item: Cc1[nH]c2ccc(F)cc2c1CCNC(=O)C1CCN(C(=O)c2ccccc2)C1 (centres undefined)
inactive

Please share the test call associated with "CN(C)CCn1cc(-c2ccc3c(Nc4ccc(CC(=O)Nc5cccc(F)c5)cc4)ncnc3c2)cn1" .
active
